- assay_target: affinity purified antibody IHuP#002-001-ABL-08
- method_summary: bridging/competition ADA assay, 10 ug/ml ISV vs labelled ISV
Task for the reader: assign each of the following binders its reported % reduction.
Give bare numbers, in %.

Sample records with % reduction:
binder: SEQ ID NO: 30, Wildtype VHH + A14P + R39Q + K83R + T91Y + Q108L + 3 A's at C-terminus (A114 + A115 + A116) (VHH) VHH: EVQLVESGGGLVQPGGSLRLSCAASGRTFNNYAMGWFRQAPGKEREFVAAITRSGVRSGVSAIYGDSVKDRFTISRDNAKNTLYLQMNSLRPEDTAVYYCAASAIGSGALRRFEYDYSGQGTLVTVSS
% reduction [%]: -13.1
//
binder: SEQ ID NO: 23, Wildtype VHH (VHH) VHH: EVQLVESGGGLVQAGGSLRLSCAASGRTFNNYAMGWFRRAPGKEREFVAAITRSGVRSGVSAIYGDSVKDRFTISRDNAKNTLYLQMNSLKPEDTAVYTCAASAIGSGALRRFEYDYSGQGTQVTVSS
% reduction [%]: 7.3
//
binder: SEQ ID NO: 28, Wildtype VHH + A14P + R39Q + K83R + T91Y + Q108L (VHH) VHH: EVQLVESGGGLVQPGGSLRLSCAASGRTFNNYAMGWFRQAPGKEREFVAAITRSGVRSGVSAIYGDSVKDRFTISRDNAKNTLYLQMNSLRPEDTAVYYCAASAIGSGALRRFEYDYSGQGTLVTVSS
% reduction [%]: 91.4
//
binder: SEQ ID NO: 26, Wildtype VHH + Q108L (VHH) VHH: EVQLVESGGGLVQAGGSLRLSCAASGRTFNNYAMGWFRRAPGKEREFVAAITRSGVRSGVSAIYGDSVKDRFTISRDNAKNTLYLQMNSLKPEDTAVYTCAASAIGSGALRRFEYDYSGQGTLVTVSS
% reduction [%]: 13.2
//
binder: SEQ ID NO: 25, Wildtype VHH + K83R (VHH) VHH: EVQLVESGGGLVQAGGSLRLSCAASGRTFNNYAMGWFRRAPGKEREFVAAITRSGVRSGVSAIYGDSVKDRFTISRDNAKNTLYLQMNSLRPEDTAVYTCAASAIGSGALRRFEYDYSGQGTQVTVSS
% reduction [%]: 15.7

Count: 3. Required value per item: % reduction.
1. SEQ ID NO: 27, Wildtype VHH + A14P + K83R + Q108L (VHH) VHH: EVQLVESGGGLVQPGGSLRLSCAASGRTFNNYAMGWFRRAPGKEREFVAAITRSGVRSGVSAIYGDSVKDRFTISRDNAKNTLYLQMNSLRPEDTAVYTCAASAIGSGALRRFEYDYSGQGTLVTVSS
2. SEQ ID NO: 29, Wildtype VHH + A14P + R39Q + K83R + T91Y + Q108L + 1 additional A at C-terminus (A114) (VHH) VHH: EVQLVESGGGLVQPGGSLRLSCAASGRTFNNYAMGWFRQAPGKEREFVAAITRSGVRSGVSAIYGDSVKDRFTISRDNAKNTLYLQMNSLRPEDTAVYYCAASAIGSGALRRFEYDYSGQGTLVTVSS
3. SEQ ID NO: 24, Wildtype VHH + A14P (VHH) VHH: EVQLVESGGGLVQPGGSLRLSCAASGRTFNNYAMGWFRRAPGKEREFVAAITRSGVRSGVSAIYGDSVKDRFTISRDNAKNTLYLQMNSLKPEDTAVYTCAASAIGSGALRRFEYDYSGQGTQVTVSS

Response:
89.1
58.6
90.8
